The reported numbers originate from the RNAGym collection of RNA variant scans (doi:10.1093/nar/gkz1192).

B1: CPEB3 Ribozyme (parent)
chain: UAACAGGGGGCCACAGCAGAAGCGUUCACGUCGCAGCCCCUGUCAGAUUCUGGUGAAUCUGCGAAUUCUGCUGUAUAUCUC

variants of: B1; assay: self-cleavage, relative activity (ratio to wild type); higher = more cleavage; in vitro, sequencing
The variants listed here are annotated with their self-cleavage.
# respond with the number and nothing more

Take a look at these entries with their results.
C62A U69G
0.33
G19C A75U
0.29
G9U U67A
0.11

The recorded self-cleavage for A56U C71G is 0.26

Measured self-cleavage of U26G U49G : 0.05

Form field self-cleavage, entry A45G U74G : 1.21

Lab book: self-cleavage of A2G U67A noted as 0.3

Field self-cleavage (entry G61C A65C ) reads 0.22

The value of self-cleavage measured for the variant G42A C81G turned out to be 0.35

According to the records, this variant A75U A77U displays self-cleavage of 1.2

response.value for C39G U60A (field: self-cleavage) = 0.25

self-cleavage for A56G U80C is 0.84

Entry A21G A47U ; self-cleavage = 0.36

Record U78C C81A , field self-cleavage: 1.21

Value of measured self-cleavage for the entry C62U U66C : 0.26

// self-cleavage value for G7U G24A : 0.22

self-cleavage in this record for U31G U74A : 1.02

Summary for this variant, G7U G36C : self-cleavage is 0.14

self-cleavage in this record for G6A U78A : 0.11

The variant listed as A35G C40G shows self-cleavage equal to 0.66

U67A C71G has a reported self-cleavage of 0.33

Consider G24A A65G . Its measured self-cleavage is 0.28
